details: buffer; pH 7.4; 200.0 µM
measure name: solubility kinetic

Input: Dear colleague, I am looking for the recorded solubility kinetic of the following compound: COC(=O)CSc1nc(C)cc(C)n1
Output: > 31.8 µg/mL

Input: Dear colleague, I am looking for the recorded solubility kinetic of the following compound: Cc1cc(NC(=O)C(C)C)ncc1NC(=O)c1ccco1
Output: > 43.1 µg/mL

Input: Dear colleague, I am looking for the recorded solubility kinetic of the following compound: Fc1ccc(-n2c(-c3ccco3)n[nH]c2=S)cc1
Output: > 39.2 µg/mL

Input: Dear colleague, I am looking for the recorded solubility kinetic of the following compound: O=C(CNC(=O)c1ccco1)NCc1nc2ccccc2[nH]1
Output: > 44.7 µg/mL

Input: Dear colleague, I am looking for the recorded solubility kinetic of the following compound: Cc1c(C(=O)O)sc2nc3n(c(=O)c12)CCC3
Output: > 37.5 µg/mL

Input: Dear colleague, I am looking for the recorded solubility kinetic of the following compound: CC(=O)Nc1ccc(NC(=O)c2cc(-n3cnnc3)ccc2Cl)cc1
Output: > 53.4 µg/mL

Input: Dear colleague, I am looking for the recorded solubility kinetic of the following compound: O=C(COC(=O)Cc1ccccc1)Nc1cccnc1Cl
Output: > 45.7 µg/mL

Input: Dear colleague, I am looking for the recorded solubility kinetic of the following compound: CCCn1c(COc2ccc(C(=O)O)cc2)nc2ccccc21
Output: > 46.6 µg/mL

Input: Dear colleague, I am looking for the recorded solubility kinetic of the following compound: COc1cc(C(=O)Nc2ccc(C(=O)O)cc2)ccc1OC(C)=O
Output: > 49.4 µg/mL

Input: Dear colleague, I am looking for the recorded solubility kinetic of the following compound: COc1ccccc1C1CC(=O)Nc2cc(C)c(C)cc21 (stereo not given)
Output: < 0.6 µg/mL

====

Task for the reader: assign each of the following compounds its reported solubility kinetic.
details: buffer; pH 7.4; 200.0 µM

Input: Dear colleague, I am looking for the recorded solubility kinetic of the following compound: O=C(Cc1ccccc1)NC(C(=O)O)C(O)c1ccc([N+](=O)[O-])cc1 (stereo not given)
Output: > 51.6 µg/mL

Input: Dear colleague, I am looking for the recorded solubility kinetic of the following compound: CC(=O)N1CCN(C(=O)c2cccc(S(=O)(=O)N3c4ccccc4CC3C)c2)CC1 (stereo not given)
Output: > 64.1 µg/mL

Input: Dear colleague, I am looking for the recorded solubility kinetic of the following compound: O=C(CSc1nnc(C2CC2)n1-c1ccccc1)NC1CCS(=O)(=O)C1 (stereo not given)
Output: > 58.9 µg/mL

Input: Dear colleague, I am looking for the recorded solubility kinetic of the following compound: C(=N\NC1=NCCN1)/c1ccncc1.Cl
Output: > 39.3 µg/mL

Input: Dear colleague, I am looking for the recorded solubility kinetic of the following compound: CC(=O)Nc1ccc(NC(=O)/C=C/c2ccc(Cl)cc2)cc1
Output: < 0.3 µg/mL

====

conditions: buffer; pH 7.4; 200.0 µM
Task for the reader: assign each of the following molecules its reported solubility kinetic.

Input: Dear colleague, I am looking for the recorded solubility kinetic of the following molecule: Cc1c(C(=O)NC2CCOC2)oc2c(F)cccc12 (stereo not given)
Output: > 39.5 µg/mL

Input: Dear colleague, I am looking for the recorded solubility kinetic of the following molecule: N#Cc1cccc(S(=O)(=O)NCCOc2ccccc2F)c1
Output: > 48.1 µg/mL

Input: Dear colleague, I am looking for the recorded solubility kinetic of the following molecule: COc1ccccc1NC(=O)Cn1nc(C)n2cccc2c1=O
Output: > 46.8 µg/mL

Input: Dear colleague, I am looking for the recorded solubility kinetic of the following molecule: Cc1[nH]c(=O)c(C#N)c(C)c1CSc1ncccn1
Output: > 40.8 µg/mL

Input: Dear colleague, I am looking for the recorded solubility kinetic of the following molecule: CC1CC1C(=O)OCC(=O)c1c(N)n(C)c(=O)n(C)c1=O (stereo not given)
Output: > 44.3 µg/mL

Input: Dear colleague, I am looking for the recorded solubility kinetic of the following molecule: O=C(Cc1ccccc1[N+](=O)[O-])N1CCOCC1
Output: > 37.5 µg/mL

Input: Dear colleague, I am looking for the recorded solubility kinetic of the following molecule: O=C1OCCN1S(=O)(=O)Nc1ccccc1
Output: > 36.3 µg/mL

Input: Dear colleague, I am looking for the recorded solubility kinetic of the following molecule: O=C(Nc1ccc(S(=O)(=O)Nc2ncccn2)cc1)c1ccccc1
Output: > 53.2 µg/mL

Input: Dear colleague, I am looking for the recorded solubility kinetic of the following molecule: CC1(C)CC(NC(=O)Cc2ccccc2)CC(C)(C)N1.Cl
Output: > 46.6 µg/mL

Input: Dear colleague, I am looking for the recorded solubility kinetic of the following molecule: COc1cccc(/C=C/C(=O)N2CCN(c3ccccn3)CC2)c1
Output: > 48.5 µg/mL

Input: Dear colleague, I am looking for the recorded solubility kinetic of the following molecule: O=[N+]([O-])c1cc(O)c(O)c([N+](=O)[O-])c1
Output: > 30 µg/mL

Input: Dear colleague, I am looking for the recorded solubility kinetic of the following molecule: CCc1nnc(NC(=O)C2CC(=O)N(Cc3ccccc3)C2)s1 (stereo not given)
Output: > 49.6 µg/mL

Input: Dear colleague, I am looking for the recorded solubility kinetic of the following molecule: Cc1nccn1-c1c([N+](=O)[O-])c(=O)n(C)c2ccccc12
Output: > 42.6 µg/mL

Input: Dear colleague, I am looking for the recorded solubility kinetic of the following molecule: O=C1NCCCCC1NS(=O)(=O)c1cccc2ccccc12 (stereo not given)
Output: > 47.8 µg/mL

Input: Dear colleague, I am looking for the recorded solubility kinetic of the following molecule: NC(=O)C1CCN(C(=O)CCSCc2ccccc2)CC1
Output: > 46 µg/mL

====

details: buffer; pH 7.4; 200.0 µM
measure name: solubility kinetic

Input: Dear colleague, I am looking for the recorded solubility kinetic of the following molecule: NC1=NC(=O)/C(=C\c2cccnc2)S1
Output: > 30.8 µg/mL

Input: Dear colleague, I am looking for the recorded solubility kinetic of the following molecule: O=C(C1CC(=O)N(c2ccccc2F)C1)N1CCOCC1 (configuration not stated)
Output: > 43.8 µg/mL

Input: Dear colleague, I am looking for the recorded solubility kinetic of the following molecule: COc1ccc(N2C(=O)C(F)(F)C2c2cccc(F)c2)cc1 (configuration not stated)
Output: < 0.7 µg/mL

Input: Dear colleague, I am looking for the recorded solubility kinetic of the following molecule: Cc1nn(CC(=O)O)c(C)c1NC(=O)c1cccs1
Output: > 41.9 µg/mL

Input: Dear colleague, I am looking for the recorded solubility kinetic of the following molecule: CCC(C)[C@H](NC(=O)Nc1ccccc1F)C(=O)O (some centres not stated)
Output: > 40.2 µg/mL

Input: Dear colleague, I am looking for the recorded solubility kinetic of the following molecule: COC(=O)C1=C(N)OC2=C(C(=O)CC(C)(C)C2)C1c1ccccc1OC (configuration not stated)
Output: > 53.6 µg/mL

Input: Dear colleague, I am looking for the recorded solubility kinetic of the following molecule: Cc1ccc(OCC(=O)NCC2CCCO2)c(C)c1 (configuration not stated)
Output: > 39.5 µg/mL

Input: Dear colleague, I am looking for the recorded solubility kinetic of the following molecule: COC(=O)C(Cc1ccccc1)N1CCS(=O)(=O)CC1 (configuration not stated)
Output: > 44.6 µg/mL

Input: Dear colleague, I am looking for the recorded solubility kinetic of the following molecule: COc1ccc(C(=O)NC(Cc2c[nH]c3ccccc23)C(=O)O)cc1 (configuration not stated)
Output: > 50.8 µg/mL

Input: Dear colleague, I am looking for the recorded solubility kinetic of the following molecule: O=C1CSC(c2cccc(F)c2)N1c1ccccc1 (configuration not stated)
Output: > 41 µg/mL

Input: Dear colleague, I am looking for the recorded solubility kinetic of the following molecule: CCOC(=O)c1cncc(O)c1
Output: > 25.1 µg/mL

Input: Dear colleague, I am looking for the recorded solubility kinetic of the following molecule: CN(C)/C=C/C(=O)c1ccc([N+](=O)[O-])c(CS(=O)(=O)c2ccccc2)c1
Output: > 56.2 µg/mL

Input: Dear colleague, I am looking for the recorded solubility kinetic of the following molecule: CCOC(=O)Cn1cc(C#N)c(=O)[nH]c1=O
Output: > 33.5 µg/mL

Input: Dear colleague, I am looking for the recorded solubility kinetic of the following molecule: Cc1ccc(CSc2ncnc3onc(C)c23)cc1
Output: < 0.2 µg/mL

Input: Dear colleague, I am looking for the recorded solubility kinetic of the following molecule: NS(=O)(=O)c1cnccc1Oc1cccc(Cl)c1
Output: > 42.7 µg/mL

Input: Dear colleague, I am looking for the recorded solubility kinetic of the following molecule: Cc1cc(=O)oc(C)c1C(=O)Nc1ccc(N(C)C)cc1
Output: > 42.9 µg/mL

Input: Dear colleague, I am looking for the recorded solubility kinetic of the following molecule: O=c1[nH]c(=S)n(-c2ccc(F)cc2)c(O)c1/C=N/N1CCOCC1
Output: > 52.6 µg/mL

Input: Dear colleague, I am looking for the recorded solubility kinetic of the following molecule: CC(C)(C)c1ccc(C(=O)NCc2ccccc2)cc1
Output: < 0.6 µg/mL

Input: Dear colleague, I am looking for the recorded solubility kinetic of the following molecule: COC(=O)c1cc(S(=O)(=O)N2CCCCC2C)c[nH]1 (configuration not stated)
Output: > 43 µg/mL

Input: Dear colleague, I am looking for the recorded solubility kinetic of the following molecule: CN(c1ccc(C(=O)Nc2cccnc2)cc1)S(=O)(=O)c1ccccc1
Output: > 55.1 µg/mL

Input: Dear colleague, I am looking for the recorded solubility kinetic of the following molecule: Cc1cccn2c(=O)c(C=O)c(Cl)nc12
Output: > 33.4 µg/mL

Input: Dear colleague, I am looking for the recorded solubility kinetic of the following molecule: C=CCOc1ccc(CNCc2cccnc2)cc1.Cl
Output: > 43.6 µg/mL
